Target: Probable G-protein coupled receptor 32 (Homo sapiens) (UniProt O75388)
Sequence (O75388 whole entry, looked up): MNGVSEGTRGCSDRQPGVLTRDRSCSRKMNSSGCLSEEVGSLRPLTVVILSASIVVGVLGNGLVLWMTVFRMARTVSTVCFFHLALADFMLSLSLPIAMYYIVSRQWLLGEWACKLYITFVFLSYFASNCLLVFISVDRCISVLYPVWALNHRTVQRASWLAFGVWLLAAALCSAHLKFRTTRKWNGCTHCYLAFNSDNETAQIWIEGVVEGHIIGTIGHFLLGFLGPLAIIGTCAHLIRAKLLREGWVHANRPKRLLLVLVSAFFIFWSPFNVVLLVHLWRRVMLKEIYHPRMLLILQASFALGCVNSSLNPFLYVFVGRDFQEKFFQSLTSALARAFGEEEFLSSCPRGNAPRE
Experiment: qHTS for Agonists of Human Resolvin D1 Receptor DRV1; also: 0% is about no effect
Settings: CHO-K1 GPR32 beta-arrestin PathHunter luminescence, 90 min; at 76.9 µM; zero percent set by DMSO-only wells
Out of some 48,000 compounds screened, about 1,200 (2.5%) were called active. Not shown: some 2% with an inconclusive outcome.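 The calls were made as follows: active = activation of at least 60% and not above a set upper limit (about 1 call in 100 departs from these limits); inconclusive = activation of 40% to 60%, or above that upper limit; inactive = activation under 40%.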 The list comes from a sample in which actives are over-represented; it also holds close analogues and randomly drawn compounds.
Output constraint: value belongs to T (active), F (inactive)

Q. What was the test verdict on O=C(CN1c2ccccc2S(=O)(=O)c2ccccc21)Nc1cccc(C(F)(F)F)c1 ?
A. F

Q. // return assay outcome for CCc1nc2ccc(C(=O)N3CCN(c4cccc(Cl)c4)CC3)cc2nc1CC
A. F

Q. Which outcome was assigned to CN(CC(=O)Nc1cccc(C(F)(F)F)c1)S(=O)(=O)c1cccs1 in this test?
A. T

Q. Returns: the outcome recorded for CCCCCCc1ccc(O)cc1O in this assay.
A. T

Q. What is the recorded call for this compound in the test? Cc1cc(F)ccc1NS(=O)(=O)c1ccc(-n2cccn2)cc1
A. T

Q. Which result was noted for this compound in the test: COc1ccc(CNC(=O)CCc2c(C)nn(-c3ccc(N4CCCC4)nn3)c2C)cc1
A. F

====

Molecular target: Probable G-protein coupled receptor 32 (Homo sapiens)
Assay: qHTS for Agonists of Human Resolvin D1 Receptor DRV1; also: 0% is about no effect
Details: CHO-K1 GPR32 beta-arrestin PathHunter luminescence, 90 min; at 76.9 µM; active compounds read high; zero percent set by DMSO-only wells
Description: Endogenous resolution of inflammation is known to be transduced through various GPCRs and their natural mediators of lipid nature. Resolvin D1 (RvD1) is one of the active players in resolution of acute inflammation through regulation of anti-inflammatory pathways; it is known to enhance phagocytosis of human macrophages, limits neutrophils infiltration, etc. […]
Among all 48,000 compounds or so, about 1,200 (2.5%) were called active. Roughly 2% stayed inconclusive and do not appear here. This is one part of a sample in which actives are shown more often than they occur.
MEASURED METRIC: activation (%)
Kindly provide the numeric value in % only, without the unit symbol.

Q. Using the record for Cc1ccc2cccc(NC(=O)C(C)Oc3ccc(C)c(C)c3)c2n1 (centres undefined) , report its activation.
A. -2.89

Q. Give its activation value. Item: CC(C)c1ccc(NC(=O)c2ccc3c(O)c(S(=O)(=O)c4ccccc4)c(=O)[nH]c3c2)cc1
A. -0.853

Q. Form field: reported activation of CCOC(=O)N1CCc2c(sc3c2c(=O)n(-c2ccc(CC)cc2)c(=O)n3C)C1
A. -6.72

Q. GET /values?readout=activation&item= CCCCn1cc(S(=O)(=O)c2ccc(OCC)cc2)c(=O)c2cc(OC)c(OC)cc21
A. -26

Q. Can you look up the measured activation of CCCOC(=O)c1c(NC(=O)c2cc3nc(-c4ccc(OC)cc4)cc(C(F)(F)F)n3n2)sc2c1CCCC2 for me?
A. 16

Q. Field request: activation | item: Cc1ccc(NC(=O)C(Cc2ccccc2)NS(=O)(=O)c2ccc3c(c2)oc(=O)n3C)cc1C (centres undefined)
A. 4.78

Q. Look up activation for this compound: Cc1ccc(C)c(N2CCN(C(=O)Cc3c(C(=O)O)c(C)cn3C)CC2)c1
A. -4.29

Q. Dear colleague, I am looking for the recorded activation of the following compound: CSc1ccc(CCNC(=O)c2cnn(-c3ccccc3)c2-n2cccc2)cc1
A. -2.99

Q. What does the record list as activation for COc1cccc(C(=O)NC2(C(F)(F)F)C(=O)Nc3c2c(=O)[nH]c(=O)n3-c2ccc(C)cc2)c1 (centres undefined) ?
A. -5.74
